- Assayed System: T1, recombinant Thermus thermophilus SlyD FKBP-Her3 (TtSlyD-FKBP-Her3)
- T1 construct: expressed in E. coli, the N-terminal methionine can be present or not; also called thermo SlyD-Her3; T.T.SlyD-Her3
- T1 chain: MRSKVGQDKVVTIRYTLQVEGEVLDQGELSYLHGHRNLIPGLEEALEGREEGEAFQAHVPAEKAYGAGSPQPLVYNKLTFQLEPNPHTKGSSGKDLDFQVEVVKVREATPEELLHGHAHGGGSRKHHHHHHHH
- Assay Remarks: SPR Biacore 4000 kinetic screening, antibody captured, analyte 150 nM, 25 C
Property Measured: koff (s⁻¹)

INSERT INTO measurements (binder, assay_value) VALUES
  ('anti-HER3 antibody M-43-01 (antibody, V domains shown, mouse hybridoma clone) VH: EVQLQQSGTVLARPGASVKMSCKASDYTFSNYWVHWVKQRPGQGLEWIGAIYPGNGDSTYYQKFKGKATLTAVTSTSTAYMDLSSLTNGDSAVYFCTRSGVGYNYYFDYWGQGTTLTVSS VL: DIQMTQSPASLSASVGETVTITCRASENIYSNLAWYQQKQGKSPQLLVYIATNLADGVPSRFSGSGSGTQFSLKINSLQPEDLGSYYCQHFYGTPFTFGTGTKLEIE', 0.00016),
  ('anti-HER3 antibody M-08-11 (antibody, V domains shown, mouse monoclonal antibody from hybridoma, tested as hybridoma supernatant or as antibody; also called M-011) VH: QAYLQQSGAELMRPGASVRMSCQASGYTFTSYTIHWLKQTPRQGLEWIGAIYPRNGDFSYNQKFKDKASLTVDTSSSTAYMHLSSLTSEDSAVYFCARTINYGDWFAYWGQGTLVTVSA VL: DIQMIQSPASLFVSEGETVIITCRASENIYSNLAWYHQKKGKSPQVLVYAAIKLADGVPLRFSGSGSGTQFSLKINSLQSEDFGSYYCQHFWGPPYTFGSGTNLEIK', 0.000102),
  ('anti-HER3 antibody M-46-01 (antibody, V domains shown, mouse hybridoma clone) VH: QIQLQQSGPQLVRPGASVKISCKASGYSFTSYWMHWVKQRPGRGLEWIGMIDPSDGVTRLNQKFKDKATLTVDNSSSTAYMQLSSPTSEDSAVHYCARVDVLYWYFDVWGAGTTVTVSS VL: DIVLTQSPASLAVSLGQRATISCRASKSISISGYSYMHWYQQKAGQPPKLLIYLTSNLESGVPARFSGSGSGTDFTLNIHPVEEEDAATYYCHHSRELPFTFGSGTKLEIK', 0.00028),
  ('anti-HER3 antibody M-17-02 (antibody, V domains shown, mouse hybridoma clone) VH: EVQLQQSGTVLARPGASVKMSCKASGYSFTSYWIHWVKQRPGQGLEWIGAIYPGNSDTTYNQKFKGKAKLTAVTSASTAYMELSSLTNEDSAVYYCARTGVWTSYYFDYWGQGTTLTVSS VL: DIQMTQSPASLSASVGETVTITCRASENIYSNLAWYQQKQGKSPQLLVYAATNLADGVPSRFSGSGSGTQFSLRINSLQPEDFGSYYCQHFYGTPFTFGTGTKLEIK', 0.0002);
